Target: Melanocortin receptor 4 (Homo sapiens)
Experiment: MC4R antagonists blocking beta-arrestin recruitment, late-stage follow-up, luminescence, biased ligand project, U2OS cells (AID 651557)
Conditions: beta-gal complementation luminescence
Calls of active or inactive are those of the source.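 Rule for the calls: active = IC50 half-maximal inhibitory concentration at most 10 µM; inactive = IC50 above 10 µM.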
Outcome codes: YES (active), NO (inactive)

INSERT INTO assay_data (molecule, target_desc, answer_label) VALUES
  ('CCC1CCCCN1S(=O)(=O)c1ccc(NC(=O)c2cccc(S(C)(=O)=O)c2)cc1 (configuration not stated)', 'Melanocortin receptor 4 (Homo sapiens)', 'NO'),
  ('COc1ccccc1C1(CCNC(C)c2cccs2)CCOC(C(C)C)C1 (configuration not stated)', 'Melanocortin receptor 4 (Homo sapiens)', 'YES'),
  ('CCC1CCCCN1S(=O)(=O)c1ccc(NC(=O)c2ccccc2)cc1 (configuration not stated)', 'Melanocortin receptor 4 (Homo sapiens)', 'NO'),
  ('Cc1ccccc1CN1Cc2cnnn2-c2ccccc2C1C#N (configuration not stated)', 'Melanocortin receptor 4 (Homo sapiens)', 'NO'),
  ('CNC(=O)c1cc(Oc2ccc(NCC(=O)Nc3ccc(Cl)c(C(F)(F)F)c3)cc2)ccn1', 'Melanocortin receptor 4 (Homo sapiens)', 'NO'),
  ('CCC1CCCCN1S(=O)(=O)c1ccc(NC(=O)c2ccnc(SC)n2)cc1 (configuration not stated)', 'Melanocortin receptor 4 (Homo sapiens)', 'NO'),
  ('CNC(=O)c1cc(Oc2ccc(NC(=O)CNc3ccc(Cl)c(C(F)(F)F)c3)cc2)ccn1', 'Melanocortin receptor 4 (Homo sapiens)', 'NO'),
  ('C#CC(=O)N(c1ccc(OC)c(OC)c1)C(C(=O)NC1CCCC1)c1cccs1 (configuration not stated)', 'Melanocortin receptor 4 (Homo sapiens)', 'NO'),
  ('O=C1c2cccc3cccc(c23)C(=O)N1CC1CCN(CC(O)COc2ccc3ccccc3c2)CC1 (configuration not stated)', 'Melanocortin receptor 4 (Homo sapiens)', 'NO'),
  ('CC(=O)c1ccc(Nc2nc3ccc(C(=O)N(CCC(C)C)CCC(C)C)cc3n2CCCN2CCCCC2)cc1', 'Melanocortin receptor 4 (Homo sapiens)', 'YES'),
  ('COc1ccc(N(C(C)=O)C(C(=O)NC2CCCC2)c2cccs2)cc1OC (configuration not stated)', 'Melanocortin receptor 4 (Homo sapiens)', 'NO'),
  ('CC1CCCCN1S(=O)(=O)c1ccc(NC(=O)c2nc(S(C)(=O)=O)ncc2Cl)cc1 (configuration not stated)', 'Melanocortin receptor 4 (Homo sapiens)', 'YES');
